# Test name: physchem
Quantity measured: solubility kinetic (µM)
Numeric answer only, unit µM assumed.

// solubility kinetic lookup, compound = Cn1cc(-c2ccc(Cc3n[nH]c4ccc(C(=O)N5CCNCC5)cc34)cc2)cn1 , result: 186

// solubility kinetic lookup, compound = Cn1ncc2cc(Cc3n[nH]c4ccc(C(=O)N5CCC(F)(F)C5)cc34)ccc21 , result: 157

// solubility kinetic lookup, compound = Cn1cnc(-c2ccc3[nH]nc(Cc4ccc(-c5cnn(C)c5)cc4)c3c2)c1 , result: 6

// solubility kinetic lookup, compound = Cn1cc(-c2ccc(Cc3n[nH]c4ccc(-c5nccn5C)cc34)cc2)cn1 , result: 96

// solubility kinetic lookup, compound = CNC(=O)c1ccc2[nH]nc(Cc3ccc(OC)c(OC)c3)c2c1 , result: 176

// solubility kinetic lookup, compound = Cn1cc(-c2ccc(Cc3n[nH]c4ccc(C(=O)NC5CC5)cc34)cc2)cn1 , result: 76

// solubility kinetic lookup, compound = Cn1cc(-c2ccc(Cc3n[nH]c4ccc(NS(C)(=O)=O)cc34)cc2)cn1 , result: 153

// solubility kinetic lookup, compound = Cn1cc(-c2ccc(Cc3n[nH]c4ccc(C(=O)N5CC[C@H](O)C5)cc34)cc2)cn1 , result: 200

// solubility kinetic lookup, compound = COC1CN(C(=O)c2ccc3[nH]nc(Cc4ccc(-c5cnn(C)c5)cc4)c3c2)C1 , result: 170
